Values from ChEMBL document CHEMBL3991601

molecular target: Mitogen-activated protein kinase kinase kinase 20 (Homo sapiens, UniProt Q9NYL2); note: in the data inactive means no Kd found up to 30 µM
Sequence (Q9NYL2 whole entry): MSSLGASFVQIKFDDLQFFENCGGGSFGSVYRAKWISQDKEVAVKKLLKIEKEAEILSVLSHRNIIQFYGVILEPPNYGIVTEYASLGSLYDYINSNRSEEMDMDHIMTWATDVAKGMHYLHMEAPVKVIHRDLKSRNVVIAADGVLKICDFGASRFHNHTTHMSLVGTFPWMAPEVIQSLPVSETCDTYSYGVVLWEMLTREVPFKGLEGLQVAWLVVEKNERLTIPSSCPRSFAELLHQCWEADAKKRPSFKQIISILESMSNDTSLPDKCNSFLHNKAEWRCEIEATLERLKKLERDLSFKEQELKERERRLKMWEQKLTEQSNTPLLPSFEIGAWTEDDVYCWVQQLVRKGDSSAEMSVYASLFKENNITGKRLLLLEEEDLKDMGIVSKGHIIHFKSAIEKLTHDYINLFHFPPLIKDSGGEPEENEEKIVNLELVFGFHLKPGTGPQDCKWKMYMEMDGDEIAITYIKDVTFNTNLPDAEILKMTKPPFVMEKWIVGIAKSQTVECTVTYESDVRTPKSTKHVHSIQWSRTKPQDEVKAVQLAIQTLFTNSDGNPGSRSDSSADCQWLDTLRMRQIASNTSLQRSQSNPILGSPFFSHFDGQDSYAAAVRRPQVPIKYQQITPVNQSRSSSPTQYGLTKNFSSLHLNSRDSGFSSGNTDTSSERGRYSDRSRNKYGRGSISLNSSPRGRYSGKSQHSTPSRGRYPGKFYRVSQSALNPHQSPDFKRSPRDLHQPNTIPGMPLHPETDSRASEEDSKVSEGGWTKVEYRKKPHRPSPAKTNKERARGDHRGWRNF
The source made the active and inactive calls.
# valid calls are active, inactive; nothing else

molecule=Cn1cc(-c2ccc(F)c(C(F)(F)F)c2)nc1C1CCN(c2ncnc3[nH]ncc23)CC1 label_value=inactive
molecule=N[C@@H]1CCCN(c2c(/C=C3\SC(=O)NC3=O)cccc2-c2ccccc2)C1 label_value=inactive
molecule=COc1cc(OC)c(/C=C/S(=O)(=O)Cc2ccc(OC)c(NCC(=O)O)c2)c(OC)c1 label_value=inactive
molecule=O=C(c1ccc(F)c(F)c1Nc1ccc(I)cc1F)N1CC(O)([C@@H]2CCCCN2)C1 label_value=inactive
molecule=CCN1CCN(Cc2ccc(-c3cc4c(N[C@H](C)c5ccccc5)ncnc4[nH]3)cc2)CC1 label_value=active

Ask: Record lookup: outcome of this test for Cc1c(F)cc(C(=O)NC2CC2)cc1-c1ccc(C(=O)NCC(C)(C)C)cn1 ?
Result: inactive

Ask: Repeat for the following molecule: OCCn1cc(-c2cnc3nnn(Cc4ccc5ncccc5c4)c3n2)cn1
Result: inactive

Ask: Repeat for the following molecule: C[C@@H](c1ccc2nccn2c1)n1nnc2ncc(-c3cnn(C)c3)nc21
Result: inactive

Ask: Repeat for the following molecule: CNC(=O)c1ccc(C)c(-n2c(C)cc(OCc3ccc(F)cc3F)c(Br)c2=O)c1
Result: inactive

Ask: Repeat for the following molecule: CNC(=O)c1cc(Oc2ccc(NC(=O)Nc3ccc(Cl)c(C(F)(F)F)c3)c(F)c2)ccn1
Result: active

Ask: Repeat for the following molecule: C=CC(=O)N1CCC(Oc2cc3c(Nc4ccc(Cl)c(Cl)c4F)ncnc3cc2OC)CC1
Result: inactive

Ask: Repeat for the following molecule: COCCNCc1ccc(-c2cc3nccc(Oc4ccc(NC(=S)NC(=O)Cc5ccc(F)cc5)cc4F)c3s2)nc1
Result: inactive

###

biological target: Cyclin-dependent kinase 4 (Homo sapiens, UniProt P11802); note: in the data inactive means no Kd found up to 30 µM
Sequence (P11802 whole entry): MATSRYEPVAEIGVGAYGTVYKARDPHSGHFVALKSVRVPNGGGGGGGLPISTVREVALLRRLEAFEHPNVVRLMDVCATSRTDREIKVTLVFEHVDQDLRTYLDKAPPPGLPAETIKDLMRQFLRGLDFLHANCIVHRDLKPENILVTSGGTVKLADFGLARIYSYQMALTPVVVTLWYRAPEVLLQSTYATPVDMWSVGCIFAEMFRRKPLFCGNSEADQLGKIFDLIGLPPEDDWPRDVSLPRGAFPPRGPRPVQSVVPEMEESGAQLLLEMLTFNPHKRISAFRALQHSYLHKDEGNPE
Activity calls are given as the source filed them.
# valid calls are true = active, false = inactive; nothing else

Here are 3 molecules together with their reported answers.
molecule=COc1ccc(-c2ccc3c(N4CCOC[C@@H]4C)nc(N4CCOC[C@@H]4C)nc3n2)cc1CO label_value=false
molecule=Cc1ccc(S(=O)(=O)Nc2nc3ccccc3nc2Nc2ccc3nsnc3c2)cc1 label_value=false
molecule=CCS(=O)(=O)N1CC(CC#N)(n2cc(-c3ncnc4[nH]ccc34)cn2)C1 label_value=false

Ask: Record lookup: outcome of this test for CNC(=O)c1ccc(-c2cnc3ncc(Cc4ccc5ncccc5c4)n3n2)cc1F ?
Result: false

Ask: Repeat for the following molecule: O=C1NC(=O)/C(=C/c2ccc3nccc(-c4ccncc4)c3c2)S1
Result: false

###

target: UniProt P42685
Sequence (P42685 whole entry): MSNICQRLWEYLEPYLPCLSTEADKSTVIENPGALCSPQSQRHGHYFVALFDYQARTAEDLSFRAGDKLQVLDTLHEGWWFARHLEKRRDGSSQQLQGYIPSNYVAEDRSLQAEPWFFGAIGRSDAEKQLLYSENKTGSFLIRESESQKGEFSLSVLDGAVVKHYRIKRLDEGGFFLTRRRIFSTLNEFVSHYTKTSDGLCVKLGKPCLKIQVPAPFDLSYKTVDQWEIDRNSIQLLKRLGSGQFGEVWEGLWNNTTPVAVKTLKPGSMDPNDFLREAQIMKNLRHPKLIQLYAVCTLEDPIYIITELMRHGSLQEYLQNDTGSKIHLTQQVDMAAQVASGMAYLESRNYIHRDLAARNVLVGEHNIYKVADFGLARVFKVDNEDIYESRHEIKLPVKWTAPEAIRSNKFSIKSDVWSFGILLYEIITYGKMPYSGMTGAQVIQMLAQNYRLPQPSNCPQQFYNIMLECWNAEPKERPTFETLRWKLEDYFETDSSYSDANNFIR
Activity calls are given as the source filed them.
# valid calls are class 1 (active), class 0 (inactive); nothing else

Here are 8 molecules together with their reported answers.
molecule=COc1ccc(-c2ccc3c(N4CCOC[C@@H]4C)nc(N4CCOC[C@@H]4C)nc3n2)cc1CO label_value="class 0"
molecule=CN1CCC(COc2cnc(-c3cccc(Cn4nc(-c5cccc(C#N)c5)ccc4=O)c3)nc2)CC1 label_value="class 0"
molecule=CC(C)Nc1cc(-c2c[nH]c(C(=O)N[C@H](CO)c3cccc(Cl)c3)c2)c(Cl)cn1 label_value="class 0"
molecule=C[C@@H](Nc1cc(F)cc(F)c1)c1cc(C(=O)N(C)C)cc2c(=O)cc(N3CCOCC3)oc12 label_value="class 0"
molecule=OCCn1cc(-c2cnc3nnn(Cc4ccc5ncccc5c4)c3n2)cn1 label_value="class 0"
molecule=CO[C@H]1C[C@@H]2CC[C@@H](C)[C@@](O)(O2)C(=O)C(=O)N2CCCC[C@H]2C(=O)O[C@H]([C@H](C)C[C@@H]2CC[C@@H](OCCO)[C@H](OC)C2)CC(=O)[C@H](C)/C=C(\C)[C@@H](O)[C@@H](OC)C(=O)[C@H](C)C[C@H](C)/C=C/C=C/C=C/1C label_value="class 0"
molecule="O=C(Nc1ccc(-c2ccnc(Nc3ccc(N4CCOCC4)cc3)n2)cc1)C1CCCN1 (stereo not given)" label_value="class 0"
molecule=C=CC(=O)N1CCC(Oc2cc3c(Nc4ccc(Cl)c(Cl)c4F)ncnc3cc2OC)CC1 label_value="class 0"

Ask: Record lookup: outcome of this test for COc1cc(N2CCC(N3CCN(C)CC3)CC2)ccc1Nc1ncnc(Nc2ccccc2S(=O)(=O)C(C)C)n1 ?
Result: class 1

Ask: Repeat for the following molecule: CC(=O)Nc1cccc(-n2c(=O)n(C3CC3)c(=O)c3c(Nc4ccc(I)cc4F)n(C)c(=O)c(C)c32)c1
Result: class 0

Ask: Repeat for the following molecule: CNC(=O)c1ccc(-c2cnc3ncc(Cc4ccc5ncccc5c4)n3n2)cc1F
Result: class 0

Ask: Repeat for the following molecule: Cn1cc(-c2ccc3nnc(C(F)(F)c4ccc5ncccc5c4)n3n2)cn1
Result: class 0

Ask: Repeat for the following molecule: N[C@@H]1CCCN(c2c(/C=C3\SC(=O)NC3=O)cccc2-c2ccccc2)C1
Result: class 0

Ask: Repeat for the following molecule: Cc1ccc(S(=O)(=O)Nc2nc3ccccc3nc2Nc2ccc3nsnc3c2)cc1
Result: class 0

Ask: Repeat for the following molecule: COc1cc(CCc2cc(NC(=O)c3ccc(N4C[C@@H](C)N[C@@H](C)C4)cc3)n[nH]2)cc(OC)c1
Result: class 0

###

Molecular target: Serine/threonine-protein kinase D2 (Homo sapiens, UniProt Q9BZL6); note: in the data inactive means no Kd found up to 30 µM
Sequence (Q9BZL6 whole entry): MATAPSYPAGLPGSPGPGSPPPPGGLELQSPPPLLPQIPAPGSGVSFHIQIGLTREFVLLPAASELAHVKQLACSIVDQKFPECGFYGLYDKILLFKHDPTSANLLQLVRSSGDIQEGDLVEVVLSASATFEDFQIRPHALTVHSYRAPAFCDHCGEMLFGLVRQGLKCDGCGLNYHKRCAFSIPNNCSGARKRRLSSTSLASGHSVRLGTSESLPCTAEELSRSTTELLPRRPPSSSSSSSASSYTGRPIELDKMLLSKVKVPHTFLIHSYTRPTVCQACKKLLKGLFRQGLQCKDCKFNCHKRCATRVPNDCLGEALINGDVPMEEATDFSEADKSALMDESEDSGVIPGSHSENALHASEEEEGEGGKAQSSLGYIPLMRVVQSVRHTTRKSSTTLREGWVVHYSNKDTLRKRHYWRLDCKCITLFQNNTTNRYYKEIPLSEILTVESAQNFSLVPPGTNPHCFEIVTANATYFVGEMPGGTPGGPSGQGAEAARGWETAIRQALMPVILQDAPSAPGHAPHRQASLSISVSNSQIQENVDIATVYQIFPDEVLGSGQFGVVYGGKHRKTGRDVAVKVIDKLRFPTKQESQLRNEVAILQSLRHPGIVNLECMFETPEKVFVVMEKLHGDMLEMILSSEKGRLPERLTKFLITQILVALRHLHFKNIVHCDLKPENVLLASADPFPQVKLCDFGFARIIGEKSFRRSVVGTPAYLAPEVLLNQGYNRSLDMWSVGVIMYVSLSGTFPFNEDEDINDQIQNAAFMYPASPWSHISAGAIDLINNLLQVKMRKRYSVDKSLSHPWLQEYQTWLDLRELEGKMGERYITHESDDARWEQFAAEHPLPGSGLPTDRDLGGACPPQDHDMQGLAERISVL
The source made the active and inactive calls.
# valid calls are active, inactive; nothing else

compound=CCn1c(=O)c(-c2cc[nH]n2)cc2c(C)nc(N)nc21 label_value=inactive

Ask: Record lookup: outcome of this test for CCS(=O)(=O)N1CC(CC#N)(n2cc(-c3ncnc4[nH]ccc34)cn2)C1 ?
Result: inactive

Ask: Repeat for the following compound: Cc1cc([C@@H](C)Nc2ccccc2C(=O)O)c2nc(N3CCOCC3)cc(=O)n2c1
Result: inactive

Ask: Repeat for the following compound: C1=C/COCc2cc(ccc2OCCN2CCCC2)Nc2nccc(n2)-c2cccc(c2)COC/1
Result: inactive

Ask: Repeat for the following compound: CCN1CCN(Cc2ccc(-c3cc4c(N[C@H](C)c5ccccc5)ncnc4[nH]3)cc2)CC1
Result: inactive

Ask: Repeat for the following compound: C[C@@H](Nc1cc(F)cc(F)c1)c1cc(C(=O)N(C)C)cc2c(=O)cc(N3CCOCC3)oc12
Result: inactive

Ask: Repeat for the following compound: COC(=O)N[C@@H](C)CNc1nccc(-c2cn(C(C)C)nc2-c2cc(Cl)cc(NS(C)(=O)=O)c2F)n1
Result: inactive

###

target: Glycogen phosphorylase, liver form (Homo sapiens, UniProt P06737); type: subcellular, K-562, COLO 205, SK-N-BE(2) and MV-4-11, Cell lysate; details: read-out: Kd apparent; note: in the data inactive means no Kd found up to 30 µM
Sequence (P06737 whole entry): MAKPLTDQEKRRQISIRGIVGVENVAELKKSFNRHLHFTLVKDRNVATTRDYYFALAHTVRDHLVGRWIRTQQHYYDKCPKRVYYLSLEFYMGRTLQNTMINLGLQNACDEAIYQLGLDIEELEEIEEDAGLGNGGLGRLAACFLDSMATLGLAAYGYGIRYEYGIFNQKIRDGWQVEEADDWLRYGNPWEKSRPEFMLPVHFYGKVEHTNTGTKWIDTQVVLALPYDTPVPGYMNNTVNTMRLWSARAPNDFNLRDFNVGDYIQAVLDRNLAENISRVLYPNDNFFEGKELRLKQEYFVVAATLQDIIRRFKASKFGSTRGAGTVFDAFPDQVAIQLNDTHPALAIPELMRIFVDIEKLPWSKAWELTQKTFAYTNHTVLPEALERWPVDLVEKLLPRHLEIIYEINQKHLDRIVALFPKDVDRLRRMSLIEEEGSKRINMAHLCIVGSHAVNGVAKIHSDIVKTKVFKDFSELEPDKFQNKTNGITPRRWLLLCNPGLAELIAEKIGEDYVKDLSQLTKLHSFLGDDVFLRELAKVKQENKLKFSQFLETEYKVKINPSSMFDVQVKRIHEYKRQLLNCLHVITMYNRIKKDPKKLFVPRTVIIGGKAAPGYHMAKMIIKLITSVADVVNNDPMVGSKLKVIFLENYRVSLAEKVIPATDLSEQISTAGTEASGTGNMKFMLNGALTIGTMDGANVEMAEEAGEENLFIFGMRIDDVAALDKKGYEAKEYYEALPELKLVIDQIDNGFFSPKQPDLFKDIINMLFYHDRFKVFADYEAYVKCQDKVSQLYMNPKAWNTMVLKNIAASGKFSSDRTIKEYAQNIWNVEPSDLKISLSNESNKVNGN
Active and inactive are the calls of the source.
Examples of compounds with documented Kd follow.

Field: example entries. Status: answers known.
compound="CN1N=C(N)c2cn([C@@H]3O[C@H](COP(=O)(O)O)[C@@H](O)[C@H]3O)c3ncnc1c23 [TRICIRIBINE PHOSPHATE]" recorded_result="> 30 µM (inactive)"
compound=CNC(=O)c1ccc(C)c(-n2c(C)cc(OCc3ccc(F)cc3F)c(Br)c2=O)c1 recorded_result="> 30 µM (inactive)"
compound=Cc1c(F)cc(C(=O)NC2CC2)cc1-c1ccc(C(=O)NCC(C)(C)C)cn1 recorded_result="> 30 µM (inactive)"
compound=Cc1cn(-c2cc(NC(=O)c3ccc(C)c(Nc4nccc(-c5cccnc5)n4)c3)cc(C(F)(F)F)c2)cn1 recorded_result="> 30 µM (inactive)"
compound=CN1CCN(c2ccc3nc(-c4c(N)c5c(F)cccc5[nH]c4=O)[nH]c3c2)CC1 recorded_result="> 30 µM (inactive)"
compound=CC(=O)Nc1cccc(-n2c(=O)n(C3CC3)c(=O)c3c(Nc4ccc(I)cc4F)n(C)c(=O)c(C)c32)c1 recorded_result="> 30 µM (inactive)"

Shift focus to the following entry.
Ask: Quick check: Kd of CN1CCC(COc2cnc(-c3cccc(Cn4nc(-c5cccc(C#N)c5)ccc4=O)c3)nc2)CC1 ?
Result: > 30 µM (inactive)
